molecular target: Serine/threonine-protein kinase PAK 4 (Homo sapiens); conditions: at 1 µM
residual activity values by entry

test_smiles | experimental_target | unit_text | residual activity
Oc1ccc(Nc2nc(-c3ccc(Cl)cc3)cs2)cc1 | Serine/threonine-protein kinase PAK 4 (Homo sapiens) | % | 103
Oc1ccc(-c2nc(-c3ccc(F)cc3)c(-c3ccncc3)[nH]2)cc1 | Serine/threonine-protein kinase PAK 4 (Homo sapiens) | % | 107
c1ccc(-c2n[nH]cc2-c2ccnc3ccccc23)nc1 | Serine/threonine-protein kinase PAK 4 (Homo sapiens) | % | 98
O=C1NC(=O)/C(=C\c2ccc3nccnc3c2)S1 | Serine/threonine-protein kinase PAK 4 (Homo sapiens) | % | 95
COc1ccc(S(=O)(=O)N(CCO)c2ccccc2CN(C)C/C=C/c2ccc(Cl)cc2)cc1 | Serine/threonine-protein kinase PAK 4 (Homo sapiens) | % | 94

---

Biological target: cGMP-dependent protein kinase 1 (Homo sapiens)
Sequence (whole entry): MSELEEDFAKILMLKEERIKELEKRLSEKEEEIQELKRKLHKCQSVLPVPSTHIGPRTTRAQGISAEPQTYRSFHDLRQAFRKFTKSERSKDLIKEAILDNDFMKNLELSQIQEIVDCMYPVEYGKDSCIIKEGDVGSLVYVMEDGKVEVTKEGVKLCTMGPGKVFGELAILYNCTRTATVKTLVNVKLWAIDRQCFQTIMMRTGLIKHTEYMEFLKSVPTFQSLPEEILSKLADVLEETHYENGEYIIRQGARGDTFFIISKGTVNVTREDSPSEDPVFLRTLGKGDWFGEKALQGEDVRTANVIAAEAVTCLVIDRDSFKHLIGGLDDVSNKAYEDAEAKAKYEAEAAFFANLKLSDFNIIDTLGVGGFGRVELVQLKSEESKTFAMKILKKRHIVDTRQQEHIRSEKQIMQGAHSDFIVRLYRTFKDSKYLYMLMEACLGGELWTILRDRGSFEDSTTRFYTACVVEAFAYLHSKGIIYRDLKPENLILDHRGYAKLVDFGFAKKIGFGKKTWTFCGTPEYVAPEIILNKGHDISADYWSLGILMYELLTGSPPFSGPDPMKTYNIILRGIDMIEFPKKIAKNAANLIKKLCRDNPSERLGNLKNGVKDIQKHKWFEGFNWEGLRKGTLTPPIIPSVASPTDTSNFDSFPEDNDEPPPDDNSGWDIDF
Conditions: at 10 µM

test_smiles | experimental_target | residual activity / %
CC(C)n1cnc2c(NCc3ccccc3)nc(NCCCO)nc21 | cGMP-dependent protein kinase 1 (Homo sapiens) | 101
CO[C@H]1C[C@@H]2CC[C@@H](C)[C@@](O)(O2)C(=O)C(=O)N2CCCC[C@H]2C(=O)O[C@H]([C@H](C)C[C@@H]2CC[C@@H](O)[C@H](OC)C2)CC(=O)[C@H](C)/C=C(\C)[C@@H](O)[C@@H](OC)C(=O)[C@H](C)C[C@H](C)/C=C/C=C/C=C/1C | cGMP-dependent protein kinase 1 (Homo sapiens) | 128
Ic1cccc(CSc2nnc(-c3ccncc3)o2)c1 | cGMP-dependent protein kinase 1 (Homo sapiens) | 96
CC(C)n1cnc2/c(=N/c3cccc(Cl)c3)nc(NCCO)[nH]c21 | cGMP-dependent protein kinase 1 (Homo sapiens) | 106
Cc1cc2ncc(-c3ccccc3)nc2cc1C | cGMP-dependent protein kinase 1 (Homo sapiens) | 130

---

target: Vascular endothelial growth factor receptor 3 (Homo sapiens); conditions: at 10 µM
Mark Y only when residual activity stays strictly below 4%. Values equal to the cut-off are N.

test_smiles | class_label
CC(C)n1cnc2/c(=N/c3cccc(Cl)c3)nc(NCCO)[nH]c21 | N
CN(C)c1ccc(/C=C2\C(=O)Nc3ccccc32)cc1 | Y
Cc1cc(Nc2nc(-c3ccccc3)nc3ccccc23)n[nH]1 | Y
c1ccc2c(-c3ccncc3)c[nH]c2c1 | N
COc1ccc(OC)c2c(=S)c3ccccc3[nH]c12 | N
Cn1cnc2cc3c(Nc4cccc(Br)c4)ncnc3cc21 | N
O=c1c2ccccc2[nH]c(=S)n1CCN1CCC(=C(c2ccc(F)cc2)c2ccc(F)cc2)CC1 | N
COc1cc2ncnc(Nc3ccc(NC(=O)c4ccccc4)cc3)c2cc1OC | N
O=C1NC(=O)/C(=C/c2ccc3c(c2)OC(F)(F)O3)S1 | N
Oc1c2ccccc2c2c3c(cccc13)N=N2 | Y
COc1cc2ncnc(Nc3ccc(O)c(Br)c3)c2cc1OC | Y
COc1ccc(CNc2nc(N(CCO)CCO)nc3c2ncn3C(C)C)cc1 | N
